# Test system: T-47D breast
# method summary: NCI tumour cell line growth inhibition, 48 h
Provide the reported TGI of each item.
Give the value, in units of µM, as a plain number.

For COc1ccc2c(c1)O/C(=C\c1ccc([N+](=O)[O-])o1)C2=O , what is its reported TGI?
8.83

Fill blank: measured TGI of the molecule CCCCCCCC(=O)SCC/C=C/[C@@H]1CC(=O)NCc2cccc(n2)C2=N[C@@](C)(CS2)C(=O)N[C@@H](C(C)C)C(=O)O1 is ____.
1.6

###

# Test system: ACHN renal
# method summary: NCI tumour cell line growth inhibition, 48 h
outcome measure: TGI (µM)
Record the value in µM, omitting the unit from your answer.

Which value of TGI has been reported for CCOc1ccccc1NC(=O)CSc1nnc(Cc2ccccc2)o1 in the records?
46.3

Given the compound COc1ccc2c(c1)O/C(=C\c1ccc([N+](=O)[O-])o1)C2=O , what is its reported TGI?
2.69

What value of TGI has been reported for the following compound? CSc1ccc(/C=C/C(=O)c2nc3ccccc3[nH]2)cc1
43.2

Suppose we examine the compound NCc1ccc(O)c(O)c1O ; what TGI value has been reported?
55.4

Which measured TGI value corresponds to C[C@]12CCC(=O)C=C1CC[C@@H]1[C@@H]2CC[C@]2(C)C(=O)/C(=C/c3ccncc3)C[C@@H]12 ?
30.5

What does the data say about its TGI? Entry: O=S(Cc1cnc2ccccc2c1)c1nc2ccccc2nc1-c1cccs1 (configuration not stated)
26.4

Would you kindly share the measured TGI for CCCCC1CCCCCCc2[nH]c(/C=C3\N=C(c4ccc[nH]4)C=C3OC)cc21 (configuration not stated) ?
1.12

TGI lookup needed for CCOc1cc(/C=N\O)cc(/C=N/O)c1O , thanks.
59.4

Look up TGI: CC1=CC[C@@H]2[C@@H](CC[C@@]2(C)O)C(C)(C)[C@H]1CC[C@@H]1[C@@]2(C)CC[C@@H](O)C(C)(C)O[C@@H]2CC[C@]1(C)O
58.7

Dear colleague, I am looking for the recorded TGI of the following compound: COC(=O)c1c(O)ccc2c1c1cc3ccccc3c(O)c1n2Cc1ccccc1Cl
95.7

###

# Test system: HCT-15 colon
# method summary: NCI tumour cell line growth inhibition, 48 h
Where a SMILES comes first, the peptide text is derived from it. [ ]: non-standard residue; d: D form. The star is where a group is joined. Bn2Val = CC(C)[C@@H](C(=O)*)N(Cc1ccccc1)Cc1ccccc1; NHPiperonyl = c1cc2c(cc1CN*)OCO2; NMeV = CN[C@H](C(=O)O)C(C)C; dNMeA = CN[C@H](C)C(=O)O
outcome measure: TGI

Which value of TGI has been reported for CC1(OCc2ccccc2)C(=O)N2C1N(C(=O)OCc1ccccc1)CC2(C)C (centres undefined) in the records?
> 100 µM

Could you tell me which TGI is on file for COC(=O)c1c(O)ccc2c1c1cc3ccccc3c(O)c1n2Cc1ccccc1Cl ?
77.1 µM

Would you kindly share the measured TGI for COc1ccc(C2CC(c3ccc4ccccc4c3)=NN2/C=C2\SC(=S)N(NC(=O)Cc3ccccc3Nc3c(Cl)cccc3Cl)C2=O)cc1 (centres undefined) ?
> 65.1 µM

Need TGI of CC(C)[C@H](NC(=O)[C@H](C(C)C)N(Cc1ccccc1)Cc1ccccc1)C(=O)N(C)[C@H](C(=O)N1CCC[C@H]1C(=O)N(C)[C@H](C)C(=O)NCc1ccc2c(c1)OCO2)C(C)C (Bn2Val-V[NMeV]P[dNMeA]-NHPiperonyl) , thanks.
> 100 µM

Data request, read-out TGI, for CCCCCCCCCCCCCCCCCc1cc(Cl)nc(Cl)n1
> 100 µM

Look up TGI: CN(C(=N)c1ccccc1)c1ccccc1
> 100 µM

If you can, please state the reported TGI value of CCCCC1CCCCCCc2[nH]c(/C=C3\N=C(c4ccc[nH]4)C=C3OC)cc21 (centres undefined) .
1.9 µM

Find the recorded TGI belonging to CC(=O)N(CN1C(=O)CCC1C(=O)O)c1ccc(C)cc1 (centres undefined) and report it.
> 100 µM

Return reported TGI; argument: S=P(C1CCCCC1)(C1CCCCC1)C(c1cccnc1)N1CCCC1 (centres undefined)
> 100 µM

These entries and their values trace back to PubChem BioAssay (NCI).
